# Tested on: HOP-92 NSCLC
# measurement-notes: NCI tumour cell line growth inhibition, 48 h
The reader will find reported TGI values listed item by item below.
Just the number please, in µM, no unit attached.

**Query** Record request: TGI value, item C[Si](C)(C)C#Cc1cc(-c2nc3ccccc3s2)ccc1N
**Result** 27.8

**Query** Any idea what TGI was measured for CCCCCC1CC=CC(=O)O1 (configuration not stated) ?
**Result** 37.7

**Query** Can you share its TGI? I mean this compound: CCCCCCCC/C=C/CCCCCCCC1=NC(C)(C)CN1CC(C)O (configuration not stated)
**Result** 5.58

---

Reported TGI values follow for various compounds
# System: CAKI-1 renal
# measurement-notes: NCI tumour cell line growth inhibition, 48 h

// solved cases for TGI follow
O=C(Cn1cc(-c2ccccc2)nn1)NC1CCCCC1 :: > 100 µM
COc1ccc(CC2C3=C(CCN2C(=O)C2CCC2)CC2(CC3)OCCO2)cc1O (configuration not stated) :: > 100 µM
Clc1c(Cl)c(Cl)c2c(nnn2C2CCCO2)c1Cl (configuration not stated) :: 74.9 µM
O=C(c1cc2ccccc2[nH]1)N1C2CCC1CN(CCOC(c1ccc(F)cc1)c1ccc(F)cc1)CC2 (configuration not stated) :: > 100 µM
C=CCc1[nH]c2c(OCc3ccccc3)cc(N(CC=C)C(C)=O)cc2c1C :: 29.9 µM

**Query** Data request, read-out TGI, for O=C(C=C1SCCS1)/C=C\c1ccc(Cl)cc1
**Result** > 100 µM

**Query** Entry O=c1ccn(CC2(CO)CCCC2)c(=O)[nH]1 has what TGI?
**Result** > 100 µM

**Query** Find the recorded TGI belonging to N#C[C@H](C(=O)c1ccccc1F)c1nc2ccccc2s1 and report it.
**Result** > 100 µM

**Query** Requested field: TGI. Item: CC1(C)N=C(N)N=C(N)N1c1ccc(CCCCc2ccccc2)c(Cl)c1
**Result** 16.8 µM

---

Each item that follows carries a reported TGI.
# Tested on: HT29 colon
# measurement-notes: NCI tumour cell line growth inhibition, 48 h

Here is how some compounds turned out for TGI.
C=C=C(C(=O)OC)S(=O)c1ccccc1[N+](=O)[O-] (stereo unspecified) :: > 100 µM
NC(CSCc1ccc(I)cc1)C(=O)O (stereo unspecified) :: > 100 µM
FC(F)(F)c1ccc(Cc2nc3cc4ccccc4cc3[nH]2)cc1 :: > 100 µM
Cc1ccc(S(=O)(=O)CN2C(=O)C(c3ccccc3)(c3ccccc3)C23OC(c2ccc(Cl)cc2)=CC3=O)cc1 (stereo unspecified) :: > 10 µM
CC(=O)OCC(OC(C)=O)C(OC(C)=O)C(/C=N\Nc1nc2ccccc2c(=O)[nH]1)=N\Nc1nc2ccccc2c(=O)[nH]1 (stereo unspecified) :: > 100 µM
CN(C)CCNc1nc2ccccc2c2c1CCCC2 :: 95.1 µM
CC(=O)C1C(=O)C(=O)N(c2ccccc2)C1=O (stereo unspecified) :: > 100 µM
C=C(C)C1CC/C(C)=C/CCC2(C)OC2CC/C(CO)=C\C1O (stereo unspecified) :: > 100 µM
COC(=O)C(Cc1nc2ccccc2[nH]c1=O)/C(=N\NC(C)(C)C)C(=O)Nc1c(C)cc(Br)cc1C (stereo unspecified) :: > 100 µM
N#Cc1cnc(-n2[nH]c3c(c2=O)CCCC3)[nH]c1=O :: > 100 µM

**Query** Record request: TGI value, item CCOC(=O)c1ccccc1OC(=O)NNc1ccccc1
**Result** > 100 µM

**Query** Sample C[n+]1c(/C=C/c2c[nH]c3ccccc23)ccc2ccccc21 — what was its TGI?
**Result** 27.5 µM

**Query** Query (compound): N.N.NCCCCCN.O=C([O-])CCl.O=C([O-])CCl.O=C([O-])CCl.O=C([O-])CCl.[Pt+4].[Pt+4] ; field requested: TGI
**Result** 42.4 µM

**Query** I have this compound here, N#Cc1c(NC(=O)NCc2ccccc2)sc2c1CCCC2 , and I need its recorded TGI.
**Result** > 100 µM

**Query** Which TGI is reported for this compound? CSC1=Nc2c(c(C)c(-c3ccccc3)n2CCCN2CCCCC2)C2=NC(=O)C[C@H](C)N12
**Result** 10.9 µM

**Query** Need TGI of CCOP(=O)(OCC)C(C)(C)N(C)/C(F)=N/C(F)(F)F , thanks.
**Result** > 100 µM

**Query** I am curious: what TGI value has been reported for C[C@]12CCc3nc(Nc4cccc(O)c4)sc3C1=CC[C@@H]1[C@@H]2CC[C@]2(C)/C(=N\NC(N)=S)CC[C@@H]12 ?
**Result** 3.73 µM

Provenance of the data: PubChem BioAssay (NCI)
